system: E. coli ATCC 10536; assay: Tetrazolium (MTT) microplate assay of minimum inhibitory concentration; assay type: cell-based; conditions: Escherichia coli, ATCC10536; 200 µg/mL
Please enter True where inhibition at 200 µg/mL is greater than or equal to 50%, and False where it is lower.

Decide: inhibition at 200 µg/mL of COc1cc(/C=N/NC(=O)c2ccncc2)ccc1OCC(=O)OC(C)(C)C [NH1] >= 50%?
True

Decide: inhibition at 200 µg/mL of CC1(C)S[C@@H]2[C@H](NC(=O)[C@H](N)c3ccc(O)cc3)C(=O)N2[C@H]1C(=O)O [Amoxicillin, reference compound] >= 50%?
True

Decide: inhibition at 200 µg/mL of CCCOc1ccc(/C=N/NC(=O)c2ccncc2)cc1OC [NH5] >= 50%?
True

Decide: inhibition at 200 µg/mL of CC(C)=CCOc1ccc(/C=N/NC(=O)c2ccncc2)cc1 [NH4] >= 50%?
True

Decide: inhibition at 200 µg/mL of CC(C)(C)OC(=O)COc1ccc(/C=N/NC(=O)c2ccncc2)cc1 [NH2] >= 50%?
False

Decide: inhibition at 200 µg/mL of COc1cc(/C=N/NC(=O)c2ccncc2)ccc1OCC=C(C)C [NH3] >= 50%?
True

###

test system: B. subtilis ATCC 11774; assay: Tetrazolium (MTT) microplate assay of minimum inhibitory concentration; assay type: cell-based; conditions: Bacillus subtilis, ATCC11774; 25 µg/mL
METRIC_NAME: inhibition at 25 µg/mL (%)
Express your answer in %, writing the number without its unit.

Example entries begin here.
>>> recorded_value("CC(C)=CCOc1ccc(/C=N/NC(=O)c2ccncc2)cc1 [NH4]")
10
>>> recorded_value("CC(C)(C)OC(=O)COc1ccc(/C=N/NC(=O)c2ccncc2)cc1 [NH2]")
4
>>> recorded_value("CO/N=C(\\C(=O)N[C@@H]1C(=O)N2C(C(=O)O)=C(CSc3nc(=O)c(=O)[nH]n3C)CS[C@H]12)c1csc(N)n1 [Ceftriaxone, reference compound]")
40

Moving on to the next compound.
I'd like to know its inhibition at 25 µg/mL. The compound in question is COc1cc(/C=N/NC(=O)c2ccncc2)ccc1OCC=C(C)C [NH3]
12

###

tested on: E. coli ATCC 10536; assay: Tetrazolium (MTT) microplate assay of minimum inhibitory concentration; type: cell-based; settings: Escherichia coli, ATCC10536; 100 µg/mL
METRIC_NAME: inhibition at 100 µg/mL (%)
Express your answer in %, writing the number without its unit.

Example entries begin here.
>>> recorded_value("COc1cc(/C=N/NC(=O)c2ccncc2)ccc1OCC(=O)OC(C)(C)C")
40
>>> recorded_value("CC(C)=CCOc1ccc(/C=N/NC(=O)c2ccncc2)cc1")
25

I'd like to know its inhibition at 100 µg/mL. The compound in question is CC(C)(C)OC(=O)COc1ccc(/C=N/NC(=O)c2ccncc2)cc1
10

I'd like to know its inhibition at 100 µg/mL. The compound in question is CCCOc1ccc(/C=N/NC(=O)c2ccncc2)cc1OC
34

I'd like to know its inhibition at 100 µg/mL. The compound in question is COc1cc(/C=N/NC(=O)c2ccncc2)ccc1OCC=C(C)C
50

I'd like to know its inhibition at 100 µg/mL. The compound in question is CCCOc1ccc(/C=N/NC(=O)c2ccncc2)cc1
28

I'd like to know its inhibition at 100 µg/mL. The compound in question is CC1(C)S[C@@H]2[C@H](NC(=O)[C@H](N)c3ccc(O)cc3)C(=O)N2[C@H]1C(=O)O [Amoxicillin, reference compound]
85

Just for reference, paper PMC9571093 is where these values come from.
